Tested on: Geobacillus stearothermophilus
Experiment: Inhibition of Bacillus stearothermophilus alpha-glucosidase using p-nitrophenyl glycoside as substrate assessed as residual activity at 1 mM after 25 mins by spectrophotometer analysis
property measured: Activity

Activity for OC[C@@H]1C[C@H](O)[C@@H](CO)N1 ?
12.8%

Activity for O=C(NCCP(=O)(O)O)[C@@H]1C[C@H](O)[C@@H](CO)N1 ?
97.1%

Activity for O=P(O)(O)OC[C@@H]1C[C@H](O)[C@@H](CO)N1 ?
97%

Activity for O=C1OC[C@@H]2C[C@H](O)[C@@H](CO)N12 ?
39.1%

Activity for O=C(O)[C@@H]1C[C@H](O)[C@@H](CO)N1 ?
110%

Attribution: ChEMBL document CHEMBL3132787
